// data source = ChEMBL document CHEMBL4177696

test system: Staphylococcus aureus; assay: Antibacterial activity against Staphylococcus aureus measured after 24 hrs; type: functional
Measure name: MIC

Take a look at these entries with their results.
COc1cccc2c1CC[C@H]1[C@H]3COC(=O)[C@@]3(O)C(=O)C[C@]21C | 1.6 µg/mL
COC(=O)[C@]1(C)CCC[C@]2(C)c3ccc(C(C)C)c(NC(=O)Cn4cc(CBr)nn4)c3CC[C@@H]12 | 50 µg/mL
COc1c(C(C)C)ccc2c1CC[C@H]1[C@@H]3COC(=O)[C@]3(O)CC[C@]21C | 100 µg/mL
COC(=O)[C@]1(C)CCC[C@]2(C)c3ccc(C(C)C)c(NC(=O)Cn4cc(CCC#N)nn4)c3CC[C@@H]12 | 50 µg/mL
COc1c(C(C)C)ccc2c1CC[C@H]1c3cocc3CC[C@]21C | 50 µg/mL

Would you kindly look at the next entry?
IN: MIC of `COC(=O)[C@]1(C)CCC[C@]2(C)c3ccc(C(C)C)c(NC(=O)Cn4cc(-c5cc(Cl)cc(Cl)c5)nn4)c3CC[C@@H]12` on Staphylococcus aureus?
OUT: 25 µg/mL
